// reported melting point per item

INSERT INTO results (compound, obs_value) VALUES
  ('C[C@@H]1Cc2ccsc2[C@H](c2cccs2)N1CCNS(=O)(=O)c1ccc(N)cc1 (relative stereo)', '156 to 161 °C'),
  ('CC(C)(C)c1cc(C(=O)NCCc2ccc([N+](=O)[O-])cc2)cc(C(C)(C)C)c1O', '204 to 206 °C'),
  ('CC(=O)O[C@@H]1C=C2C=C3C(=C(C)C(=O)N3C)C[C@]2(C)[C@@H](C)[C@H]1O', '50 to 55 °C'),
  ('CCCN(CCC)C(=O)n1ccc(S(=O)(=O)c2c(C)cc(C)cc2C)n1', '64 to 65 °C');

Lab note: next compound to report on.
What value of melting point has been recorded for this entry: `CS(=O)(=O)c1cccnc1S(C)(=O)=O`
175 to 176 °C
